All figures here come from patent US20250154145A1.

- Tested on: neutrophils
- EXPERIMENTAL_PROTOCOL: Neutrophil calcium flux assay (5-OXO-ETE-stimulated, Indo-1 fluorescence)
- Format: cell-based
- RUN_PARAMETERS: Neutrophil, 5-OXO-ETE-stimulated calcium flux
pIC50: −log10 of the molar value.
RECORDED_ENDPOINT: pIC50

[[record]]
compound = "C[C@H](CC(=O)O)CC(=O)n1c(CCCCCCc2cccc(Cl)c2)cc2ccc(Cl)cc21"
tested_system = "neutrophils"
measurement = "< 6.52"

[[record]]
compound = "CC(CC(=O)O)CC(=O)c1c(CCCCCC(O)c2ccc(F)cc2)n(C)c2ncc(Cl)cc12 (stereo not shown)"
tested_system = "neutrophils"
measurement = "< 6.52"

[[record]]
compound = "Cn1c(CCCCCCc2cccc(Cl)c2)c(C(=O)N2CC[C@H](C(=O)O)C2)c2cc(C#N)cnc21"
tested_system = "neutrophils"
measurement = "> 7.00"

[[record]]
compound = "Cn1c(CCCCCCC#CC2CC(F)(F)C2)c(C(=O)N2CC[C@H](c3nnn[nH]3)C2)c2cc(C#N)cnc21"
tested_system = "neutrophils"
measurement = "> 7.00"

[[record]]
compound = "C[C@H](CC(=O)O)CC(=O)c1c(CCOCCNc2cccc(Cl)c2)n(C)c2ccc(Cl)cc12"
tested_system = "neutrophils"
measurement = "> 7.00"

[[record]]
compound = "Cn1c(CCCCCCc2cccc(Cl)c2)c(C(=O)N2CC[C@H](C(=O)O)C2)c2cc(Cl)ccc21"
tested_system = "neutrophils"
measurement = "> 7.00"

[[record]]
compound = "Cn1c(CCCCOCc2cccc(Cl)c2)c(C(=O)N2CC[C@H](c3nnn[nH]3)C2)c2cc(C(F)(F)F)cnc21"
tested_system = "neutrophils"
measurement = "< 6.52"

